measurementTarget: recombinant human BAFF (human, UniProt Q9Y275 134-285)
methodSummary: cell-based or functional assay
measure: IC50 (nM) BAFF
Answer with the figure and its unit, nothing else.

binder	IC50 (nM) BAFF
TACI 516 (EAAAK)6 CTLA 4 668 (other) VAMRSCPEEQYWDPLLGTCMSCKTICNHQSQRTCAAFCRSLSCRKEQGKFYDHLLRDCISCASICGQHPKQCAYFCENKLRSEAAAKEAAAKEAAAKEAAAKEAAAKEAAAKKAMHVAQPAVVLASSRGIASFVCEYASPGKATEVRVTVLRQADSQVTEVCAATYMMGNELTFLDDSICTGTSSGNQVNLTIQGLRAMDTGLYICKVELMYPPPYYLGIGNGTQIYVIDPEPSPDSDQDYKDDDDKHHHHHH	3.42 nM
TACI 516 (G4S)3 CTLA 4 668 (other) VAMRSCPEEQYWDPLLGTCMSCKTICNHQSQRTCAAFCRSLSCRKEQGKFYDHLLRDCISCASICGQHPKQCAYFCENKLRSGGGGSGGGGSGGGGSKAMHVAQPAVVLASSRGIASFVCEYASPGKATEVRVTVLRQADSQVTEVCAATYMMGNELTFLDDSICTGTSSGNQVNLTIQGLRAMDTGLYICKVELMYPPPYYLGIGNGTQIYVIDPEPSPDSDQDYKDDDDKHHHHHH	8.75 nM
Fc (G4S)2 BCMA (357) (Fc fusion) EPKSSDKTHTCPPCPAPEAEGAPSVFLFPPKPKDTLMISRTPEVTCVVVDVSHEDPEVKFNWYVDGVEVHNAKTKPREEQYNSTYRVVSVLTVLHQDWLNGKEYKCKVSNKALPAPIEKTISKAKGQPREPQVYTLPPSRDELTKNQVSLTCLVKGFYPSDIAVEWESNGQPENNYKTTPPVLDSDGSFFLYSKLTVDKSRWQQGNVFSCSVMHEALHNHYTQKSLSLSPGGGGGSGGGGSLQMAGQCSQNEYFDSLLYACIPCQLRCSSNTPPLTCQRYCNASVTNSVKGTNA	5.44 nM
Fc (G4S)2 BCMA (356) (Fc fusion) EPKSSDKTHTCPPCPAPEAEGAPSVFLFPPKPKDTLMISRTPEVTCVVVDVSHEDPEVKFNWYVDGVEVHNAKTKPREEQYNSTYRVVSVLTVLHQDWLNGKEYKCKVSNKALPAPIEKTISKAKGQPREPQVYTLPPSRDELTKNQVSLTCLVKGFYPSDIAVEWESNGQPENNYKTTPPVLDSDGSFFLYSKLTVDKSRWQQGNVFSCSVMHEALHNHYTQKSLSLSPGGGGGSGGGGSLQMAGQCSQNEYFDSLLHACIPCQLRCSSNTPPLTCQRYCNASVTNSVKGTNA	42.7 nM
TACI 528 (EAAAK)6 CTLA 4 668 (other) SLSCRKEQGKFYDHLLRDCISCASICGQHPKQCAYFCENKLRSEAAAKEAAAKEAAAKEAAAKEAAAKEAAAKKAMHVAQPAVVLASSRGIASFVCEYASPGKATEVRVTVLRQADSQVTEVCAATYMMGNELTFLDDSICTGTSSGNQVNLTIQGLRAMDTGLYICKVELMYPPPYYLGIGNGTQIYVIDPEPSPDSDQDYKDDDDKHHHHHH	5.18 nM

We next turn to a different binder, shown below.
# input Which IC50 (nM) BAFF value belongs to TACI 528 (G4S)3 CTLA 4 668 (other) SLSCRKEQGKFYDHLLRDCISCASICGQHPKQCAYFCENKLRSGGGGSGGGGSGGGGSKAMHVAQPAVVLASSRGIASFVCEYASPGKATEVRVTVLRQADSQVTEVCAATYMMGNELTFLDDSICTGTSSGNQVNLTIQGLRAMDTGLYICKVELMYPPPYYLGIGNGTQIYVIDPEPSPDSDQDYKDDDDKHHHHHH ?
# output 8.41 nM
